Overview of recorded growth inhibition for various compounds
- assayName: NCI Yeast Anticancer Drug Screen. Data for the cln2 rad14 strain (AID 165);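 also: 0% = growth equal to vehicle treated cultures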
- conditionDescription: S. cerevisiae cln2 rad14 strain, at 50.0 µM, hits give high values
About 79,000 compounds went through this panel and 15% of them were active in at least one assay; those are over-represented in the sample as a whole.
Field format: number, assumed %, no unit text.

// below: answered compounds
>>> measvalue("N#Cc1ccc2c(c1)Sc1ccccc1N2")
-43.4
>>> measvalue("Clc1ccc2c(c1)C(Nc1cc3c4ccccc4ccc3c3ccccc13)c1cc(Cl)cc(Cl)c1-2 (stereo not drawn)")
21.1
>>> measvalue("O=C1C2=C(c3ccccc31)C(c1ccc(F)cc1)N1C(=O)CCSC1=N2 (stereo not drawn)")
40.1

// growth inhibition lookup, compound = CC(C)OC(=O)/C=C/C(=O)OC(C)C (tested in a mixture with another compound) , result: -20.4

For this compound ( CNc1ccccc1C(=O)N/N=C/c1ccc(O)c(OC)c1 ), measured growth inhibition is 2.55

So for CC(Nc1ccc([N+](=O)[O-])cc1)S(=O)(=O)O (stereo not drawn) , the logged growth inhibition turned out to be 16.6

Entry O=C(O)CCCc1ccc(O)cc1 , growth inhibition reported as 10.7

The reported value for C#CCn1cnc2c1c(=O)n(C)c(=O)n2C in terms of growth inhibition is -0.8
